Attribution: patent US12129221B2

Assay: PK in monkey
Details: in vivo, PO 200 mg/kg
quantityName: half-life (min)
One number for each entry, in min.

Q: Look up half-life of `CCC(C)(C)C(=O)N(O)Cc1cc(F)cc(F)c1` and report it.
Ans: 130

---

Assay: PK in dog
Conditions: in vivo, PO 150 mg/kg
quantityName: AUC(0-inf) (ng·h/mL)
Answers are plain numbers, in ng·h/mL.

Q: Look up AUC(0-inf) of `CCC(C)(C)C(=O)N(O)Cc1cc(F)cc(F)c1` and report it.
Ans: 7230

---

Experiment: PK in rat
Design: species or system SD rat
Conditions: Sprague-Dawley, rat, in vivo, po, 10 mg/kg, PO 10 mg/kg
quantityName: bioavailability

Q: Look up bioavailability of CCC(C)(C)C(=O)N(O)Cc1ccccc1 [Compound 92, reference compound] and report it.
Ans: 1.2%
